# assayed-target: T1, RepB OBD (origin binding domain), wt (Streptococcus plasmid pMV158, UniProt P13921 1-131)
# T1 sequence: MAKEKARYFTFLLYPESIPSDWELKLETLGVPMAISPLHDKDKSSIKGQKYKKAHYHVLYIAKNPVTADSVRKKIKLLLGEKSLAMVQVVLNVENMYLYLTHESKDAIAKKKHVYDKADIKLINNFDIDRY
# assay-protocol: EMSA; EMSA: 20 mM Tris-HCl pH 8.0, 5 mM DTT, 300 mM NaCl, 20 nM DNA, 20 min 25 C; footprinting same buffer; SPR: 10 mM HEPES pH 7.4, 150 mM NaCl, 3 mM EDTA, 0.005% P20
# particulars: protein: recombinant; tags: none; label: 5'-Cy5 (top); blunt
Items are presented alongside their recorded Kd.
result-type: Kd

1. DDRR (dsDNA) DNA 1: CTTTTCGGCGACTTTTTAG DNA 2: CTAAAAAGTCGCCGAAAAG; ~1000 nM
2. DDRL (dsDNA) DNA 1: AATCTCGGCGACTTTTCGG DNA 2: CCGAAAAGTCGCCGAGATT; ~1000 nM
3. 1DDR (dsDNA) DNA 1: AATCTCGGCGACTTTTTAGA DNA 2: TCTAAAAAGTCGCCGAGATT; 1100 nM
